Cited source: patent US20250206732A1

- study system: AsPC-1 HiBiT-KRASG12D (Homo sapiens, UniProt P01116, G12D)
- Construct: insert the HiBiT tag onto the N-terminus of one or more of the endogenous KRAS alleles; endogenous in cells; host or cells: AsPC-1 (ATCC CRL-1682), CRISPR-Cas9 knock-in clone, one tagged allele
- Sequence (P01116 1-188 isoform P01116-2 G12D): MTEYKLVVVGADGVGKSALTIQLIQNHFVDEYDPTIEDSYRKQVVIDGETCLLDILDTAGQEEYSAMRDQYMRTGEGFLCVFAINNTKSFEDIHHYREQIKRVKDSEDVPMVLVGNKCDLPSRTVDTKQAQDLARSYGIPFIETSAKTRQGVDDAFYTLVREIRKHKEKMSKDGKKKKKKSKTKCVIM
- assay: HiBiT degradation assay (G12D), AsPC-1 HiBiT-KRASG12D cells
- Type: cell-based
- condition details: AsPC-1 HiBiT-KRASG12D cells, 24 hours treatment, HiBiT luminescence
Reported DC50 values are given for each entry in this list.

CCc1cccc2cc(O)cc(-c3ncc4c(N5CC6CCC(C5)N6)nc(OCCN5CCC(F)(CN6CCN(c7cc([C@@H](C(=O)N8C[C@H](O)C[C@H]8C(=O)N[C@@H](C)c8ccc(-c9scnc9C)cc8)C(C)C)on7)C[C@@H]6C)CC5)nc4c3F)c12 | 600 to 1000 nM
CCc1cccc2cc(O)cc(-c3ncc4c(N5CC6CCC(C5)N6)nc(OCCN5CCC(CCC6CN(c7cc([C@@H](C(=O)N8C[C@H](O)C[C@H]8C(=O)N[C@@H](C)c8ccc(-c9scnc9C)cc8)C(C)C)on7)C6)CC5)nc4c3F)c12 (single isomer, unassigned) | 1000 to 3000 nM
CCc1cccc2cc(O)cc(-c3ncc4c(N5CC6CCC(C5)N6)nc(OCCN5CCC6(CC5)CC(Oc5cc([C@H](C(=O)N7C[C@H](O)C[C@H]7C(=O)N[C@@H](C)c7ccc(-c8scnc8C)cc7)C(C)C)on5)C6)nc4c3F)c12 | < 600 nM
CCc1cccc2cccc(-c3ncc4c(N5CC6CCC(C5)N6)nc(OC[C@@H]5CC[C@@H](COC(=O)N6CC(Oc7cc([C@H](C(=O)N8C[C@H](O)C[C@H]8C(=O)N[C@@H](C)c8ccc(-c9scnc9C)cc8)C(C)C)on7)C6)N5C)nc4c3F)c12 | < 600 nM
CCc1cccc2cc(O)cc(-c3ncc4c(N5CCCCCC5)nc(OC[C@]56CCCN5[C@@H](COC(=O)N5CCN(c7cc([C@@H](C(=O)N8C[C@H](O)C[C@H]8C(=O)N[C@@H](C)c8ccc(-c9scnc9C)cc8)C(C)C)on7)CC5)CC6)nc4c3F)c12 | > 3000 nM
Cc1ncsc1-c1ccc([C@H](C)NC(=O)[C@@H]2C[C@@H](O)CN2C(=O)[C@H](c2cc(OC3CN(C(=O)OC[C@@H]4CC[C@@]5(COc6nc(N7CC8CCC(C7)N8)c7cnc(-c8cc(O)cc(Cl)c8C8CC8)c(F)c7n6)CCCN45)C3)no2)C(C)C)cc1 | 600 to 1000 nM
CCc1cccc2cc(O)cc(-c3ncc4c(N5CC6CCC(C5)N6)nc(OCCN5CCC(CN6CC7(C6)CN(c6cc([C@H](C(=O)N8C[C@H](O)C[C@H]8C(=O)N[C@@H](C)c8ccc(-c9scnc9C)cc8)C(C)C)on6)C7)CC5)nc4c3F)c12 | < 600 nM

Now consider a different molecule.
The molecule identified as Cc1ncsc1-c1ccc([C@H](C)NC(=O)[C@@H]2C[C@@H](O)CN2C(=O)[C@@H](c2cc(OCC3CCN(CCOc4nc(N5CC6CCC(C5)N6)c5cnc(-c6cc(O)cc(Cl)c6C6CC6)c(F)c5n4)CC3)no2)C(C)C)cc1 registered its DC50 at < 600 nM
